- system.under.test: T1, 4H1405-AA
- T1 chain: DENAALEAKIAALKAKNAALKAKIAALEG
- experimental.protocol: two-hybrid library CCmax;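 also: natural log of median RNA to DNA barcode read ratio; higher means stronger binding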
- assay.setup: mean of both orientations
parameter.measured: interaction score
Enter a number only.

Some binders with recorded interaction score:
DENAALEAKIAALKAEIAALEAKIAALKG [4H1350-AA]: -0.893
DENAALEAEIAALKAEIAALKAKNAALEG [4H1103-AA]: -1.89
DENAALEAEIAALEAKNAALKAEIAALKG [4H1082-AA]: -1.13

INPUT: Which interaction score value is on record for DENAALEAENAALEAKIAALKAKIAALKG [4H1198-AA] ?
OUTPUT: -0.758

INPUT: Which interaction score value is on record for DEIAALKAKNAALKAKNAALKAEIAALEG [4H1017-AA] ?
OUTPUT: -1.79
